Every entry's value here was drawn from ChEMBL document CHEMBL1155435.

pKi data for Corticotropin-releasing factor receptor 1 (Homo sapiens) follow.
Note: pKi values are expressed as the negative base-10 logarithm of concentration in M.

> print(dat)
                           smiles.structure  measured.metric  endpoint.value
1  C=CCN(CCC)Cc1c(C(F)(F)F)nc2n1CCCN2c1c(C)cc(C)cc1C              pKi            7.32

Query string: Tell me measured pKi for `CCCN(CCc1ccccc1)Cc1c(C(F)(F)F)nc2n1CCCN2c1c(C)cc(C)cc1C` please.
Result string: 7.17

---

Molecular target: Corticotropin-releasing factor receptor 1 (Homo sapiens)
Sequence (P34998 whole entry): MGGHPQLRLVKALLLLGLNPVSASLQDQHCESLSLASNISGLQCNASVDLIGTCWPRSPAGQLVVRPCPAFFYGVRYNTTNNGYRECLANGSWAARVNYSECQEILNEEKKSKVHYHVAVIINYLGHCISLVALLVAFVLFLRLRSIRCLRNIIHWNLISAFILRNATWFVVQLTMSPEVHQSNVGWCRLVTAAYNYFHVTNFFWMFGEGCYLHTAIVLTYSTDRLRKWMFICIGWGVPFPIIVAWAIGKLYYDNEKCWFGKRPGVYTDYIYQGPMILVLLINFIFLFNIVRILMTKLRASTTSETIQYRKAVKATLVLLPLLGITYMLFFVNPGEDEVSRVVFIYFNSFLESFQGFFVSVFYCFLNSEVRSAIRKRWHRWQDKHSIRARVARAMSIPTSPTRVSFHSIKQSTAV
Labelling field: enter T if recorded Ki is less than 1000 nM. Enter F if it equals or exceeds that cut-off.

Example entries and their recorded answers appear below.
> print(dat)
                           smiles.structure  label.class
1  CCCN(CC1CC1)C(=O)c1c(C(F)(F)F)nc2n1CCCN2c1c(C)cc(C)cc1C            F
2  C=CCN(CCC)C(=O)c1c(C)nc2n1CCCN2c1c(C)cc(C)cc1C            F
3  C=CCN(CC=C)C(=O)c1c(CC)nc2n1CCC(=O)N2c1c(C)cc(C)cc1C            F
4  CCN(Cc1c(C(F)(F)F)nc2n1CCCN2c1c(C)cc(C)cc1C)CC1CC1            T

Query string: Hello, is Ki of the following compound strictly smaller than 1000 nM? `CCCN(CCC(F)(F)F)Cc1c(C(F)(F)F)nc2n1CCCN2c1c(C)cc(C)cc1C`
Result string: T

Query string: Hello, is Ki of the following compound strictly smaller than 1000 nM? `Cc1cc(C)c(N2CCCn3c2nc(C(F)(F)F)c3CN2CCCCC2)c(C)c1`
Result string: T

---

Experiment: Drug level in mouse brain at 32 mg/kg, ip after 30 mins
Format: ADME, organism-based
Parameters: dose 32 mg/kg, route intraperitoneal
Conditions: read-out: Drug uptake
Measured metric: concentration at 0.5 h (ng/g)
The response must be a number in ng/g with no trailing unit.

Query string: Tell me measured concentration at 0.5 h for `CCCN(Cc1c(C(F)(F)F)nc2n1CCCN2c1c(C)cc(C)cc1C)CC1CC1` please.
Result string: 352

---

Ki data for Corticotropin-releasing factor receptor 1 (Homo sapiens) follow.
The response must be a number in µM with no trailing unit.

> print(dat)
                           smiles.structure  quantity.unit  endpoint.value
1  CCCN(Cc1c(C(F)(F)F)nc2n1CCCN2c1c(C)cc(C)cc1C)CC1CC1             µM           0.032

With those in mind, consider the next compound.
Query string: Tell me measured Ki for `CCCN(CC1CCC1)C(=O)c1c(C)nc2n1CCCN2c1c(C)cc(C)cc1C` please.
Result string: 3.3
